B1: TPR 5TU (parent)
chain: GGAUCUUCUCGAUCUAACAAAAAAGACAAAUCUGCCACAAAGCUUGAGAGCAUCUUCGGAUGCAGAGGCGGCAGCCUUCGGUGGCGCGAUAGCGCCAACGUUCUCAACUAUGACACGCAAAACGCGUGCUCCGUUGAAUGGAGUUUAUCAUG

variants of: B1; test: polymerase ribozyme fitness, log enrichment relative to wild type (log ratio); higher = more active; in vitro selection for triplet polymerase activity
This sample holds only a part of the variants without activity.
Measured polymerase ribozyme fitness (log ratio) values are reported for all entries that follow.

If you can, please state the reported polymerase ribozyme fitness (log ratio) value of A12G A40C A41G U56A U82G C99A A113C C125U .
≤ -4.2

Value source: the RNAGym collection of RNA variant scans (doi:10.1073/pnas.2313332121)
